Hey, just so you know, these numbers are from paper PMC5681642.

System tested: BTA121 (Borrelia turicatae)
Construct: signal peptide and further N-terminal residues removed, putative PARP domain kept; N-terminal dodeca-His tag cut with TEV protease; E. coli BL21-CodonPlus(DE3)-RIPL; predominantly monomer, some dimer
Experiment summary: radioligand binding, Q-sepharose separation, scintillation counting
Measurement name: Kd (µM)
Report as a plain number; the unit µM is understood.

*Q* # value lookup — system BTA121 (Borrelia turicatae), readout Kd, item CCCCCCCCCCCCCCCC(=O)O [palmitate]
*A* 229
